System: M14
test_summary: NCI tumour cell line growth inhibition, 48 h
Calls of active or inactive are those of the source. No stated cut-off is given here; in the data, active = GI50 up to about 1.1 µM and inactive = higher.
Thanks in advance; please answer with one of these: T (active), F (inactive)

Look up the recorded call for `c1ccc(-c2cc(-c3cccs3)c(-c3cccs3)o2)cc1` in this test.
F

Look up the recorded call for CN1CCCCC1CCN1c2ccccc2Sc2ccc([S+](C)[O-])cc21 (centres undefined) in this test.
F

Look up the recorded call for `O=[N+]([O-])c1ccc(S(=O)(=O)n2c3ccc(Br)cc3c3nc4ccccc4nc32)cc1` in this test.
F

Look up the recorded call for `O=C(O)CNC(=O)c1c2ccccc2nc2ccccc12` in this test.
F

Look up the recorded call for COc1cc(Br)c(CC2(C#N)c3ccccc3C3C(N2C(=O)c2ccccc2)C3(Cl)Cl)cc1OC (centres undefined) in this test.
F

Look up the recorded call for C=C(C)C12CC3CC/C(=N/O)C(C1)C3(N1CCOCC1)C/C2=N/O (centres undefined) in this test.
F

Look up the recorded call for C=CCN1CCC(c2cc(C(=O)OCC)[nH]c2-c2cc(C)no2)C1=O (centres undefined) in this test.
F

Look up the recorded call for `NCCS(=O)(=O)O` in this test.
F

Look up the recorded call for Nc1ncnc2c1N=C(c1ccccc1)CC(c1ccccc1)N2 (centres undefined) in this test.
F

Look up the recorded call for `CO[C@H]1C[C@@H]2CC[C@@H](C)[C@@](O)(O2)C(=O)C(=O)N2CCCC[C@H]2C(=O)O[C@H]([C@H](C)C[C@@H]2CC[C@@H](O)[C@H](OC)C2)CC(=O)[C@H](C)C=C(C)[C@@H](O)[C@@H](OC)C(=O)[C@H](C)C[C@H](C)/C=C/C=C/C=C1C` in this test.
F

Look up the recorded call for COc1cccc2c1C(=O)c1c(O)c3c(c(O)c1C2=O)C[C@@](O)(C(C)O)C[C@@H]3OC1CC(N)C(O)C(C)O1 (some centres undefined) in this test.
F
